Values from patent US8834843B2

# Experimental protocol: Biodistribution in BDL rats with and without excess cold compound
# Format: in vivo
# Settings: male, Sprague Dawley, rat, thyroid, iv, total radioactivity, BDL rats, 15 days post-op, 1 hour post-injection, no excess; read-out: Activity in Thyroid, Mean
Numbered stars: 1 amine (or outer) side, 2 acyl side, 3 side chain; on linkers, the order of the positions; unused ones are H or OH. Bridge positions count the residues as written; N and C are the ends. Side chains are listed from the residue outwards. Peptide text beside a SMILES is read from it. * marks the point of attachment. X1 = C/C(=N\O)C(C)(C)NCCC(CCNC(C)(C)/C(C)=N/O)CCN*; Glutaryl = O=C(CCCC(=O)[*:2])[*:1]; X2 = NC(=O)COCC(=O)NCCOCCOCCOCCN*
Outcome measure: tissue uptake dose at 1 h (%ID)
Give bare numbers, in %ID.

Summary for this molecule, C/C(=N\O)C(C)(C)NCCC(CCNC(=O)CCCC(=O)NCCCC[C@@H]1NC(=O)CSC[C@@H](C(=O)NCCOCCOCCOCCNC(=O)COCC(N)=O)NC(=O)[C@H](Cc2ccccc2)NC(=O)[C@@H]2CSSC[C@H](NC1=O)C(=O)N[C@@H](CCCNC(=N)N)C(=O)NCC(=O)N[C@@H](CC(=O)O)C(=O)N2)CCNC(C)(C)/C(C)=N/O (stereo partly shown) [Compound 8] ({CH2CO}-K([Glutaryl-X1])CRGDCFC-X2; disulfide 2-6; thioether N-8) : tissue uptake dose at 1 h is 0.04

###

# Experimental protocol: Biodistribution in sham-operated rats with and without excess cold compound
# Assay type: in vivo
# Settings: male, Sprague Dawley, rat, spleen, iv, 3 MBq, total radioactivity, 15 days post-op, 1 hour post-injection, +10K-fold excess cold Compound 8, read-out: Activity in Spleen, Mean
Numbered stars: 1 amine (or outer) side, 2 acyl side, 3 side chain; on linkers, the order of the positions; unused ones are H or OH. Bridge positions count the residues as written; N and C are the ends. Side chains are listed from the residue outwards. Peptide text beside a SMILES is read from it. * marks the point of attachment. X1 = C/C(=N\O)C(C)(C)NCCC(CCNC(C)(C)/C(C)=N/O)CCN*; Glutaryl = O=C(CCCC(=O)[*:2])[*:1]; X2 = NC(=O)COCC(=O)NCCOCCOCCOCCN*
Outcome measure: tissue uptake dose at 1 h (%ID)
Give bare numbers, in %ID.

Summary for this compound, C/C(=N\O)C(C)(C)NCCC(CCNC(=O)CCCC(=O)NCCCC[C@@H]1NC(=O)CSC[C@@H](C(=O)NCCOCCOCCOCCNC(=O)COCC(N)=O)NC(=O)[C@H](Cc2ccccc2)NC(=O)[C@@H]2CSSC[C@H](NC1=O)C(=O)N[C@@H](CCCNC(=N)N)C(=O)NCC(=O)N[C@@H](CC(=O)O)C(=O)N2)CCNC(C)(C)/C(C)=N/O (stereo partly shown) [Compound 8] ({CH2CO}-K([Glutaryl-X1])CRGDCFC-X2; disulfide 2-6; thioether N-8) : tissue uptake dose at 1 h is 0.27

###

# Experimental protocol: Biodistribution in sham-operated rats with and without excess cold compound
# Type: in vivo
# Settings: male, Sprague Dawley, rat, stomach, iv, 3 MBq, total radioactivity, 15 days post-op, 1 hour post-injection, +10K-fold excess cold Compound 8, read-out: Activity in Stomach, Mean
Numbered stars: 1 amine (or outer) side, 2 acyl side, 3 side chain; on linkers, the order of the positions; unused ones are H or OH. Bridge positions count the residues as written; N and C are the ends. Side chains are listed from the residue outwards. Peptide text beside a SMILES is read from it. * marks the point of attachment. X1 = C/C(=N\O)C(C)(C)NCCC(CCNC(C)(C)/C(C)=N/O)CCN*; Glutaryl = O=C(CCCC(=O)[*:2])[*:1]; X2 = NC(=O)COCC(=O)NCCOCCOCCOCCN*
Outcome measure: tissue uptake dose at 1 h (%ID)
Give bare numbers, in %ID.

Summary for this compound, C/C(=N\O)C(C)(C)NCCC(CCNC(=O)CCCC(=O)NCCCC[C@@H]1NC(=O)CSC[C@@H](C(=O)NCCOCCOCCOCCNC(=O)COCC(N)=O)NC(=O)[C@H](Cc2ccccc2)NC(=O)[C@@H]2CSSC[C@H](NC1=O)C(=O)N[C@@H](CCCNC(=N)N)C(=O)NCC(=O)N[C@@H](CC(=O)O)C(=O)N2)CCNC(C)(C)/C(C)=N/O (stereo partly shown) [Compound 8] ({CH2CO}-K([Glutaryl-X1])CRGDCFC-X2; disulfide 2-6; thioether N-8) : tissue uptake dose at 1 h is 1.92

###

# Experimental protocol: Biodistribution in sham-operated rats with and without excess cold compound
# Format: in vivo
# Settings: male, Sprague Dawley, rat, thyroid, iv, 3 MBq, total radioactivity, 15 days post-op, 1 hour post-injection, no excess, read-out: Activity in Thyroid, Mean
Numbered stars: 1 amine (or outer) side, 2 acyl side, 3 side chain; on linkers, the order of the positions; unused ones are H or OH. Bridge positions count the residues as written; N and C are the ends. Side chains are listed from the residue outwards. Peptide text beside a SMILES is read from it. * marks the point of attachment. X1 = C/C(=N\O)C(C)(C)NCCC(CCNC(C)(C)/C(C)=N/O)CCN*; Glutaryl = O=C(CCCC(=O)[*:2])[*:1]; X2 = NC(=O)COCC(=O)NCCOCCOCCOCCN*
Outcome measure: tissue uptake dose at 1 h (%ID)
Answers are plain numbers, in %ID.

Summary for this compound, C/C(=N\O)C(C)(C)NCCC(CCNC(=O)CCCC(=O)NCCCC[C@@H]1NC(=O)CSC[C@@H](C(=O)NCCOCCOCCOCCNC(=O)COCC(N)=O)NC(=O)[C@H](Cc2ccccc2)NC(=O)[C@@H]2CSSC[C@H](NC1=O)C(=O)N[C@@H](CCCNC(=N)N)C(=O)NCC(=O)N[C@@H](CC(=O)O)C(=O)N2)CCNC(C)(C)/C(C)=N/O (stereo partly shown) [Compound 8] ({CH2CO}-K([Glutaryl-X1])CRGDCFC-X2; disulfide 2-6; thioether N-8) : tissue uptake dose at 1 h is 0.05

###

# Experimental protocol: Biodistribution in BDL rats with and without excess cold compound
# Format: in vivo
# Settings: male, Sprague Dawley, rat, heart, iv, total radioactivity, BDL rats, 15 days post-op, 1 hour post-injection, no excess; read-out: Activity in Heart, Mean
Numbered stars: 1 amine (or outer) side, 2 acyl side, 3 side chain; on linkers, the order of the positions; unused ones are H or OH. Bridge positions count the residues as written; N and C are the ends. Side chains are listed from the residue outwards. Peptide text beside a SMILES is read from it. * marks the point of attachment. X1 = C/C(=N\O)C(C)(C)NCCC(CCNC(C)(C)/C(C)=N/O)CCN*; Glutaryl = O=C(CCCC(=O)[*:2])[*:1]; X2 = NC(=O)COCC(=O)NCCOCCOCCOCCN*
Outcome measure: tissue uptake dose at 1 h (%ID)
Give bare numbers, in %ID.

Summary for this molecule, C/C(=N\O)C(C)(C)NCCC(CCNC(=O)CCCC(=O)NCCCC[C@@H]1NC(=O)CSC[C@@H](C(=O)NCCOCCOCCOCCNC(=O)COCC(N)=O)NC(=O)[C@H](Cc2ccccc2)NC(=O)[C@@H]2CSSC[C@H](NC1=O)C(=O)N[C@@H](CCCNC(=N)N)C(=O)NCC(=O)N[C@@H](CC(=O)O)C(=O)N2)CCNC(C)(C)/C(C)=N/O (stereo partly shown) [Compound 8] ({CH2CO}-K([Glutaryl-X1])CRGDCFC-X2; disulfide 2-6; thioether N-8) : tissue uptake dose at 1 h is 0.13

###

# Experimental protocol: Biodistribution in sham-operated rats with and without excess cold compound
# Format: in vivo
# Settings: male, Sprague Dawley, rat, bile and urine, iv, total radioactivity, 15 days post-op, 1 hour post-injection, +10K-fold excess cold Compound 8
Numbered stars: 1 amine (or outer) side, 2 acyl side, 3 side chain; on linkers, the order of the positions; unused ones are H or OH. Bridge positions count the residues as written; N and C are the ends. Side chains are listed from the residue outwards. Peptide text beside a SMILES is read from it. * marks the point of attachment. X1 = C/C(=N\O)C(C)(C)NCCC(CCNC(C)(C)/C(C)=N/O)CCN*; Glutaryl = O=C(CCCC(=O)[*:2])[*:1]; X2 = NC(=O)COCC(=O)NCCOCCOCCOCCN*
Outcome measure: dose excreted at 1 h

Summary for this compound, C/C(=N\O)C(C)(C)NCCC(CCNC(=O)CCCC(=O)NCCCC[C@@H]1NC(=O)CSC[C@@H](C(=O)NCCOCCOCCOCCNC(=O)COCC(N)=O)NC(=O)[C@H](Cc2ccccc2)NC(=O)[C@@H]2CSSC[C@H](NC1=O)C(=O)N[C@@H](CCCNC(=N)N)C(=O)NCC(=O)N[C@@H](CC(=O)O)C(=O)N2)CCNC(C)(C)/C(C)=N/O (stereo partly shown) [Compound 8] ({CH2CO}-K([Glutaryl-X1])CRGDCFC-X2; disulfide 2-6; thioether N-8) : dose excreted at 1 h is 46.5%
